Data origin: patent US20200024330A1

experimental_system: HIV-1 JR-CSF Env Q337A (HIV-1 isolate JR-CSF) (UniProt P20871)
test_summary: cell-based or functional assay
observed_property: Fold IC50 increase relative to wild-type

>>> value("PGT-135 (antibody, V domains shown) VH: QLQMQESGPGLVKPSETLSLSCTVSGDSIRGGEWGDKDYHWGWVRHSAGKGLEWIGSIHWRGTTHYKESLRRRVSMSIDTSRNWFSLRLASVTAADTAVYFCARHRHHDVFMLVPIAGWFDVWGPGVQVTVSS VL: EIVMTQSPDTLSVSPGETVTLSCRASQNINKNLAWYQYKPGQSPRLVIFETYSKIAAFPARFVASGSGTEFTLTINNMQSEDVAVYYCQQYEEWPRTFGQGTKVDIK")
"2.1 fold"
